- Measured on: ZFP SBS#358 (synthetic)
- Sequence (chain, as listed by the source): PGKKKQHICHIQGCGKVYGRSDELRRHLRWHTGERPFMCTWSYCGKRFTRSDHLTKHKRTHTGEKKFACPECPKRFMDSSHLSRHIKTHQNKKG
- Test protocol: EMSA
- Conditions: tags: MBP fusion
pKd: −log10 of the molar value.
Quantity: pKd

{"Binder": "GGCTGGGCG (dsDNA) DNA 1: GGCTGGGCG DNA 2: CGCCCAGCC", "Quantitative readout": 6.65}
